STUDY_TARGET: T1, Recombinant human Glypican-3 (human, UniProt P51654 25-559, limits assumed, randomly biotinylated via Lysine residues (EZ-Link Sulfo-NHS-LC-LC-Biotin) where captured on Neutravidin; not biotinylated where used as competitor in solution)
T1 construct: Bought protein; The biotinylated and the non-biotinylated preparation are written as one molecule; also called GPC3; GPC-3
T1 sequence (P51654 25-559 limits assumed): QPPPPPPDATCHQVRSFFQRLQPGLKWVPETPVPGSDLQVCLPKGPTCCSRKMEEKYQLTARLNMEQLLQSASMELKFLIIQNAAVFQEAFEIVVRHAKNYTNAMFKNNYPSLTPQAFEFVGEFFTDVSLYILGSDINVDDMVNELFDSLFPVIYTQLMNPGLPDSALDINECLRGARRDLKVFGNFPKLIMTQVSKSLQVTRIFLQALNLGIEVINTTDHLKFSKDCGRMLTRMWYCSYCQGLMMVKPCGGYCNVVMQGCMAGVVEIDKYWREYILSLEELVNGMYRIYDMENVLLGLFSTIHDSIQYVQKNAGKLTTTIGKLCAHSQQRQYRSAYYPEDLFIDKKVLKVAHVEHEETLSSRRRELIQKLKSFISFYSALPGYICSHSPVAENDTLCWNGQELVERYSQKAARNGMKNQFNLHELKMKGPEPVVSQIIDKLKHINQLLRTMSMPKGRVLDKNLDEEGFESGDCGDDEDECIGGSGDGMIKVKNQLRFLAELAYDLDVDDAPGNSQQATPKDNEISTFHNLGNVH
EXPERIMENTAL_PROTOCOL: SPR (Biacore T100), Glypican-3 amine-coupled to a CM5 chip, mutein as analyte, evaluated conc 40/120 nM, 1:1 model
MEASUREMENT_TYPE: Kd (nM)
Numbers only, in nM.

Some binders with recorded Kd:
Query: Entry PIE-G3B (designed binder, C-terminal Strep-tag II; also called Lcn2 mutein; not shown: C-terminal Strep-tag II) QDSTSDLIPAPPLSKVPLQQNFQDNQFHGKWYVVGVAGNAMLREDKDPLKMRATIYELKEDKSYNVTGVSFWRKKCHYKIGTFVPGSQPGEFTLGDIKSGPGQTSNLVRVVSTNYNQHAMVFFKEVRQNREWFAITLYGRTKELTSELKENFIRFSKSLGLPENHIVFPVPIDQCIDGSAWSHPQFEK has what Kd?
Result: 0.55

Query: Entry PIE-G3A (designed binder, Made in E. coli from phNGAL98 with a C-terminal Strep-tag II; also called Lcn2 mutein; not shown: C-terminal Strep-tag II) QDSTSDLIPAPPLSKVPLQQNFQDNQFHGKWYVVGIAGNWILREDKDPPKMRATIYELKEDKSYNVTRVRFDEKKCGYGIATFVPGSQPGEFTLGVIKSRPGITSDLVRVVSTNYNQHAMVFFKFVKQNREYFGITLYGRTKELTSELKENFIRFSKSLGLPENHIVFPVPIDQCIDGSAWSHPQFEK has what Kd?
Result: 3.78

Next:
Query: Entry PIE-G3F (designed binder, C-terminal Strep-tag II; also called Lcn2 mutein; not shown: C-terminal Strep-tag II) QDSTSDLIPAPPLSKVPLQQNFQDNQFHGKWYVVGIAGNGQLREDKDPWKMSATIYELKEDKSYNVTSVRFRLKKCSYWIYTFVPGSQPGEFTLGGIKSNPGDTSNLVRVVSTNYNQHAMVFFKYVIQNREWFIITLYGRTKELTSELKENFIRFSKSLGLPENHIVFPVPIDQCIDGSAWSHPQFEK has what Kd?
Result: 3.13
